# study-system: Cellular tumor antigen p53 (Homo sapiens)
# assay-text: Primary qHTS for small molecule compounds that upregulate eGFP-tagged delta133p53alpha (in N-terminal) cells. (AID 2060322); also: nearly all actives have a fitted effect of over 75% in size;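 as to activation: cells pre-induced with doxycycline then dosed without doxycycline; 0% = DMSO vehicle and 100% = reference activator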
# experimental-conditions: NCI-H358 eGFP-delta133p53alpha fluorescence, 24 h; stronger effect = higher value
Results filed as inconclusive are left out. Activity calls are given as the source filed them. Calls follow the shape of the dose curve; as a rule, active = well fitted activation curve with a large enough effect; inconclusive = small, poorly fitted or top-dose-only effect; inactive = no such curve, though single readings can be large or run the other way.
Each entry below lists one item and its recorded activation value.

CCC(C(=O)OCCN1CCOC(c2ccccc2)C1C)c1ccccc1 (stereo not drawn)
-7.53% (inactive)
CCn1cc(-c2cccc(C(F)(F)F)c2)c2sc(C(N)=NC3CCS(=O)(=O)CC3)cc2c1=O
12.3% (inactive)
Nc1nnnn1-c1ccccc1
29.9% (inactive)
CC1=C(C(=O)OCc2ccccc2)C(c2ccc(-c3ccccc3)cc2)NC(=O)N1CCCCCC(=O)O (stereo not drawn)
12.3% (inactive)

Record O=C(O)c1[nH]n(-c2ccc(S(=O)(=O)O)cc2)c(=O)c1N=Nc1ccc(S(=O)(=O)O)cc1 , field activation: 3.95% (inactive)

* * *

# assay-text: BET inhibitor-based combinations targeting novel dependencies in MECOM-rearranged (r) AML: SET-2 cell line (AID 2202231); also: nearly all actives have a fitted effect of over 35% in size;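 as to viability: plate controls were DMSO treated cells for no effect and wells without cells for full effect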
# experimental-conditions: SET-2 AML cells viability, CellTiter-Glo luminescence, 48 h; stronger effect = lower value, concentration not given here
# Method: Ecotropic viral insertion site 1 (EVI1) is located on chromosome 3q26.2 as part of the MECOM (MDS and EVI1 complex) locus. […] A collection of 2480 mechanistically annotated dugs (MIPE v5.0) was used to screen four 3q26.2 rearranged AML cell lines and three non-3q26.2 rearranged AML cell lines. […] Cell viability was determined by luminescence based, Cell Titer Glo assay (Promega). […] Luminescence readings were taken using a Viewlux (PerkinElmer) with a 2 s exposure time per plate. […]
Inconclusive results are not listed.
value-kind: viability (%)
Form entry: value (%) — number only.

Here is how some compounds turned out for viability.
COc1ccc(Nc2nccc(NCCO)n2)cc1
106
CC(C)(OCc1nn(Cc2ccccc2)c2ccccc12)C(=O)O
104
CCCN1CCN(c2ccc(C(=O)NC3(C(=O)NCC#N)CCCCC3)cc2)CC1
102
COc1nc(-c2ccc3c(c2)OCO3)n(-c2ccc(NC(=O)CSc3ccccc3)cc2)n1
97.5
CS(=O)(=O)N(Cc1ccco1)CC(O)Cn1c2ccccc2c2ccccc21 (configuration not stated)
98.8
CC1=C(/C=C/C(C)=C/C=C/C(C)=C\C(=O)O)C(C)(C)CCC1
102
NNCCc1ccccc1
108
C#C[C@]1(O)CC[C@H]2[C@@H]3CCC4=CC(=O)CC[C@@H]4[C@H]3CC[C@@]21CC
103

Record Clc1ccc2c(N3CCN(CCCN4CCN(c5ccnc6cc(Cl)ccc56)CC4)CC3)ccnc2c1 , field viability: 76.4

Record CCCc1cc(C(N)=S)ccn1 , field viability: 112

Record NC(=O)C1CCCc2c1[nH]c1ccc(Cl)cc21 (configuration not stated) , field viability: 104

Record O=C(c1ccccc1)c1ccc2n1CCC2C(=O)O (configuration not stated) , field viability: 104

* * *

Each entry below lists one item and its recorded Potency value.
# assay-text: BET inhibitor-based combinations targeting novel dependencies in MECOM-rearranged (r) AML: SET-2 cell line (AID 2202231); also: nearly all actives have a fitted effect of over 35% in size; also: potency is read from the fitted curve at half-maximal effect;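 as to viability: plate controls were DMSO treated cells for no effect and wells without cells for full effect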
# experimental-conditions: SET-2 AML cells viability, CellTiter-Glo luminescence, 48 h
Results filed as inconclusive are left out. Activity calls are given as the source filed them. The call rests on the fitted dose curve; in most records, active means well fitted inhibition curve with a large enough effect; inconclusive means small, poorly fitted or top-dose-only effect; inactive means no such curve, though single readings can be large or run the other way.

CCCCCCCCc1ccc(CCC(N)(CO)CO)cc1
26.3 µM (active)
Cc1ccc(NC(=O)Nc2cc(C(F)(F)F)ccc2F)cc1Nc1ccc2c(c1)NC(=O)/C2=C\c1ccc[nH]1
23.5 µM (active)
NC1(Cc2ccc(Cl)cc2)CCN(c2ncnc3[nH]ccc23)CC1
14.8 µM (active)
CC(C)CNc1ccnc(NCc2csc(-c3ccccc3)n2)n1
11.8 µM (active)

Now turn to the next compound.
Record O=c1cc(N2CCOCC2)oc2c(-c3cccc4c3sc3ccccc34)cccc12 , field Potency: 9.34 µM (active)

* * *

# assay-text: BET inhibitor-based combinations targeting novel dependencies in MECOM-rearranged (r) AML: AML-191 cell line (AID 2202236; also: nearly all actives have a fitted effect of over 35% in size)
# experimental-conditions: AML-191 viability, CellTiter-Glo luminescence, 48 h; series mostly up to 46 µM
Inconclusive results are not listed. Active and inactive are the calls of the source. Calls come from the whole dose curve; as a rule, active = well fitted inhibition curve with a large enough effect; inconclusive = small, poorly fitted or top-dose-only effect; inactive = flat fitted curve, though single readings scatter.
Return exactly one item of active, inactive

Some entries whose results are on file:
CC1c2ccccc2CN1NC(=O)c1ccc(Cl)c(S(N)(=O)=O)c1 (centres undefined)
inactive
O=C(NC(Cc1cc(=O)[nH]c2ccccc12)C(=O)O)c1ccc(Cl)cc1 (centres undefined)
inactive

Returns: the outcome recorded for NC1CCC(N[C@@H]2C[C@H]2c2ccccc2)CC1 (some centres undefined) in this assay.
inactive

Returns: the outcome recorded for COc1cc2c(cc1OC)CN(CCc1ccc(NC(=O)c3cccc4c(=O)c5cccc(OC)c5[nH]c34)cc1)CC2 in this assay.
inactive

Returns: the outcome recorded for Cc1cc2c(C(C)C)c(O)c(O)c(C=O)c2c(O)c1-c1c(C)cc2c(C(C)C)c(O)c(O)c(C=O)c2c1O in this assay.
active

Returns: the outcome recorded for COc1ccc2cc([C@H](C)C(=O)O)ccc2c1 in this assay.
inactive

Returns: the outcome recorded for COc1cc(N2CCC(O)CC2)ccc1Nc1cc(Nc2ccccc2S(=O)(=O)C(C)C)c2cc[nH]c2n1 in this assay.
active

Returns: the outcome recorded for Cc1[nH]nc(C(F)(F)F)c1Cc1sc2c(c1C(=O)N1C[C@](C)(O)CO1)c(=O)n(C)c(=O)n2C(C)C in this assay.
inactive

Returns: the outcome recorded for Nc1ncn([C@@H]2O[C@H](CO)[C@@H](O)[C@H]2O)c(=O)n1 in this assay.
active

* * *

# assay-text: BET inhibitor-based combinations targeting novel dependencies in MECOM-rearranged (r) AML: AML-191 cell line (AID 2202236)
# experimental-conditions: AML-191 viability, CellTiter-Glo luminescence, 48 h; series mostly up to 46 µM
Inconclusive results are not listed. Activity calls are given as the source filed them. Calls come from the whole dose curve; as a rule, active = well fitted inhibition curve with a large enough effect; inconclusive = small, poorly fitted or top-dose-only effect; inactive = flat fitted curve, though single readings scatter.
Return exactly one item of active, inactive

Some entries whose results are on file:
COc1cc(C)c(Sc2cnc(NC(=O)c3ccc(CNC(C)C(C)(C)C)cc3)s2)cc1C(=O)N1CCN(C(C)=O)CC1 (stereo not given)
active
Cn1cnc2c1c(=O)[nH]c(=O)n2C
inactive
CC(N[C@H]1CCCC[C@H]1NC(=O)c1ccc(Cl)cc1)c1cccc2ccccc12 (stereo not given in full)
active
N=c1ccn2c(n1)O[C@H]1[C@@H](O)[C@@H](CO)O[C@H]12
active
COc1ccc(-c2cnc3c(-c4cccc5ncccc45)cnn3c2)cc1
inactive

Returns: the outcome recorded for CCCn1c(=O)c2[nH]c(-c3cnn(Cc4cccc(C(F)(F)F)c4)c3)nc2n(CC)c1=O in this assay.
inactive

Returns: the outcome recorded for CC(C)(O)CC(=O)NCCn1ccc2ncnc(Nc3ccc(Oc4cccc(C(F)(F)F)c4)c(Cl)c3)c21 in this assay.
active

Returns: the outcome recorded for CC(C)N(CCC(=O)c1ccc2ccccc2c1)Cc1ccccc1 in this assay.
active

Returns: the outcome recorded for CNC(=O)c1ccc2cc(C3(O)CCn4cncc43)ccc2c1 (stereo not given) in this assay.
inactive

Returns: the outcome recorded for NC(=O)Nc1cc(-c2ccc(CN3CCOCC3)cc2)sc1C(N)=O in this assay.
active

* * *

# study-system: Cellular tumor antigen p53 (Homo sapiens)
# assay-text: Primary qHTS for small molecule compounds that upregulate eGFP-tagged delta133p53alpha (in N-terminal) cells. (AID 2060322); also: nearly all actives have a fitted effect of over 75% in size; also: potency is read from the fitted curve at half-maximal effect;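 as to activation: cells pre-induced with doxycycline then dosed without doxycycline; 0% = DMSO vehicle and 100% = reference activator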
# experimental-conditions: NCI-H358 eGFP-delta133p53alpha fluorescence, 24 h
Inconclusive results are not listed. The source made the active and inactive calls. The call rests on the fitted dose curve; in most records, active means well fitted activation curve with a large enough effect; inconclusive means small, poorly fitted or top-dose-only effect; inactive means no such curve, though single readings can be large or run the other way.
Each entry below lists one item and its recorded Potency value.

Here is how some compounds turned out for Potency.
COc1cc(N2CCC(N)CC2)ccc1Nc1ncc(Cl)c(-c2c[nH]c3ccccc23)n1
26.9 µM (active)
O=C(Nc1ccnc(NC(=O)C2CC2)c1)c1c(Cl)cccc1Cl
12 µM (active)
CCOc1ccc(-n2c(C(C)N(Cc3cccnc3)C(=O)Cc3ccc(F)c(C(F)(F)F)c3)nc3ncccc3c2=O)cc1 (stereo not given)
19 µM (active)
COc1cc(C=CC(=O)CC(=O)C=Cc2ccc(O)c(OC)c2)ccc1O
39.5 µM (active)
CC(C)[C@H](CO)Nc1nc(Nc2cccc(Cl)c2)c2ncn(C(C)C)c2n1
24.3 µM (active)

Record CNS(=O)(=O)c1ccccc1Nc1nc(Nc2ccc(N3CCN(C)CC3)cc2OC)ncc1Cl , field Potency: 21.3 µM (active)

Record Cc1ccc(-c2ccc3ncc4c(c3n2)n(C2CCN(C(=O)[C@H](C)O)CC2)c(=O)n4C)cn1 , field Potency: 12 µM (active)

Record CN1CC[C@H](c2c(O)cc(O)c3c(=O)cc(-c4ccccc4Cl)oc23)[C@H](O)C1 , field Potency: 0.11 µM (active)

Record O=C1Nc2ccc(I)cc2C1=Cc1cc(Br)c(O)c(Br)c1 , field Potency: 24.3 µM (active)

Record C=C1C(=O)O[C@@H]2[C@H]1CC[C@H](C)C(CCC(=O)O)C2(C)O (stereo not given in full) , field Potency: 23.9 µM (active)
